# Test system: SARS-CoV
# Test Details: Antiviral activity against SARS coronavirus infected in HuH7 cells expressing T7 RNA polymerase assessed as reduction in viral RNA replication incubated for 24 hrs by luciferase reporter gene assay
# Format: functional, organism-based
# Experimental Setup: Severe acute respiratory syndrome-related coronavirus, Huh-7, 24 h
Measured EC50 of individual entries
Give just the numeric value; µM need not be written.

Please review the following examples before continuing.
## Input Supply EC50 value. Item: O=C(/C=C/c1ccccc1)N[C@@H](CC1CCCCC1)C(=O)N[C@@H](C[C@@H]1CCNC1=O)C(=O)C(=O)NCc1ccccc1
## Output 1.4

## Input Tell us which EC50 value is on record for O=C(/C=C/c1ccccc1)N[C@@H](CC1CCC1)C(=O)N[C@@H](C[C@@H]1CCNC1=O)C(=O)C(=O)NCc1ccccc1
## Output 6.7

## Input Supply measured EC50 of O=C(/C=C/c1ccccc1)N[C@@H](CC1CC1)C(=O)N[C@@H](C[C@@H]1CCNC1=O)C(=O)C(=O)NCc1ccccc1 in your reply.
## Output 1.9

Now examine the next entry.
## Input Dear colleague, please send me the reported EC50 for O=C(/C=C/c1ccccc1)N[C@@H](Cc1ccccc1)C(=O)N[C@@H](C[C@@H]1CCNC1=O)C(=O)C(=O)NCc1ccccc1 when you can.
## Output 2
